- Test System: UniProt:E2JF22
- Test Details: Inhibition of mouse Piezo1
Measurement Type: EC50 (µM)

| Smiles Structure | Number |
| --- | --- |
| Cc1oc(-c2ccccc2)cc1C(=O)O | 200 |

----------
- Test System: Piezo-type mechanosensitive ion channel component 1 (Homo sapiens)
- Sequence (Q92508 whole entry): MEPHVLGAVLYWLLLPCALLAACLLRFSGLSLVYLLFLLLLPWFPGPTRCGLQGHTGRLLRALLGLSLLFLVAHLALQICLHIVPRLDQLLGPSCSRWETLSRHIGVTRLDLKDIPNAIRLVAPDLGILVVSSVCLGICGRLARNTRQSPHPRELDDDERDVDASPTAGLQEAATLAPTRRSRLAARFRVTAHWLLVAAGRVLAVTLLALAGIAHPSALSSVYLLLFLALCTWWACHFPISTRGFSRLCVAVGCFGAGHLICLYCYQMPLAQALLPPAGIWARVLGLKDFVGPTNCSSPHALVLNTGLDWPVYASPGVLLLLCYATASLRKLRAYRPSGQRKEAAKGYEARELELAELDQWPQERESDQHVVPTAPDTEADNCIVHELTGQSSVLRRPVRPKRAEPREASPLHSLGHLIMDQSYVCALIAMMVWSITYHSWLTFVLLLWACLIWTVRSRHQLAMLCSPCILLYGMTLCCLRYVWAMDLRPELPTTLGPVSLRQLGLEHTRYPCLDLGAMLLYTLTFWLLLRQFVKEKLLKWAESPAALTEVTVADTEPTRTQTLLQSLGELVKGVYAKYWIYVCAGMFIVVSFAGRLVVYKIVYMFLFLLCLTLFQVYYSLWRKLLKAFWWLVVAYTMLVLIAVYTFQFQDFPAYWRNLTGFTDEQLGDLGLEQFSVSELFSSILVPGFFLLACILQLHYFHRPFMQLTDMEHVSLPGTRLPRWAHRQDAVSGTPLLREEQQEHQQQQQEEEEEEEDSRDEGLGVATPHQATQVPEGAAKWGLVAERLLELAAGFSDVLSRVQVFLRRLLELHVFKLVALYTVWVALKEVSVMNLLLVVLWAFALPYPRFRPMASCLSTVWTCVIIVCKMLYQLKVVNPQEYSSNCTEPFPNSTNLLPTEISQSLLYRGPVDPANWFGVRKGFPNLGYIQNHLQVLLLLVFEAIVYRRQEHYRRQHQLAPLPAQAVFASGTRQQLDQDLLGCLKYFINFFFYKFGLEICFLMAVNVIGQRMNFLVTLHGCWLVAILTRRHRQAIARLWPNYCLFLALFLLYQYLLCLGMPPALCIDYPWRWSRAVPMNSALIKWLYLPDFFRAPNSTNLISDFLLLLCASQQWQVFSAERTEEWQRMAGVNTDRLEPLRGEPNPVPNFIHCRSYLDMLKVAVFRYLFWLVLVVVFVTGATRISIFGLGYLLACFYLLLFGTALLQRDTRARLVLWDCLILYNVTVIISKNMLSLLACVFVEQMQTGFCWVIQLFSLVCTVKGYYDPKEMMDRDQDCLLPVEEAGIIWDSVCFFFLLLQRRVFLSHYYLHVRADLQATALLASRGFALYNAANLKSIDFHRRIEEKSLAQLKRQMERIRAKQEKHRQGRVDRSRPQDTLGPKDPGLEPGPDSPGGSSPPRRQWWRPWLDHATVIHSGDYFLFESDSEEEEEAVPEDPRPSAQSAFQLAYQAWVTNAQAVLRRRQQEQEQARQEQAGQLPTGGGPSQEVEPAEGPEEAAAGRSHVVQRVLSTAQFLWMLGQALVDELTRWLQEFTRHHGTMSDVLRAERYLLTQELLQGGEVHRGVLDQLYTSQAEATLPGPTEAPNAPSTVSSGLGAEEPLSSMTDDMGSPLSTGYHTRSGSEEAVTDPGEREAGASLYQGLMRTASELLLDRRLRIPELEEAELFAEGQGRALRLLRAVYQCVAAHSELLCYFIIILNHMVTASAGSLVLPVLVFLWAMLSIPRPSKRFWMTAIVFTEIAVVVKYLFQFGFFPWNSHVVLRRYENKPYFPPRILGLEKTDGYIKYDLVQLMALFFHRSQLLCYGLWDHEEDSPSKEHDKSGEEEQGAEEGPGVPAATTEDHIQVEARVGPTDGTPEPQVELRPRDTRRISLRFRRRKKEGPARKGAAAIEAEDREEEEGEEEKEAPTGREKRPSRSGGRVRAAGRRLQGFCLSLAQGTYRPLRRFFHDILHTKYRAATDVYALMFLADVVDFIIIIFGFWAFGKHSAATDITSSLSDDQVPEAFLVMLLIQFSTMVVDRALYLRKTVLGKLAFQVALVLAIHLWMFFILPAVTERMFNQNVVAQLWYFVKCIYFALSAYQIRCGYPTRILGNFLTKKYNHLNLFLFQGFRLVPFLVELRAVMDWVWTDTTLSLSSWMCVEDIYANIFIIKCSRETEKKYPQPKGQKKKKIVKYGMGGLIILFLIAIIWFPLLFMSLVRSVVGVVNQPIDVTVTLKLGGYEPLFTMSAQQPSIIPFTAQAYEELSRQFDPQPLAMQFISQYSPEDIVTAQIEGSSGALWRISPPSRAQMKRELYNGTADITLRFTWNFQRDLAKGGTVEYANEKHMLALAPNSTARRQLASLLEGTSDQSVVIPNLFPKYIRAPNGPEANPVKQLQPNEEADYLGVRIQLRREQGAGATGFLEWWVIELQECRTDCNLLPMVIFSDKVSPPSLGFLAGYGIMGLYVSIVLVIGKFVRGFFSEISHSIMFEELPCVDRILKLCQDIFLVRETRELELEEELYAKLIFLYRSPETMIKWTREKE
- Test Details: Agonist activity at human Piezo1 transfected in human HEK293T cells by FLIPR assay
pEC50: −log10 of the molar value.
Measurement Type: pEC50

| Smiles Structure | Measurement Type | Number |
| --- | --- | --- |
| Clc1cccc(Cl)c1CSc1nnc(-c2cnccn2)s1 | pEC50 | 4.58 |

----------
- Test System: Piezo-type mechanosensitive ion channel component 1 (Mus musculus)
- Sequence (E2JF22 whole entry): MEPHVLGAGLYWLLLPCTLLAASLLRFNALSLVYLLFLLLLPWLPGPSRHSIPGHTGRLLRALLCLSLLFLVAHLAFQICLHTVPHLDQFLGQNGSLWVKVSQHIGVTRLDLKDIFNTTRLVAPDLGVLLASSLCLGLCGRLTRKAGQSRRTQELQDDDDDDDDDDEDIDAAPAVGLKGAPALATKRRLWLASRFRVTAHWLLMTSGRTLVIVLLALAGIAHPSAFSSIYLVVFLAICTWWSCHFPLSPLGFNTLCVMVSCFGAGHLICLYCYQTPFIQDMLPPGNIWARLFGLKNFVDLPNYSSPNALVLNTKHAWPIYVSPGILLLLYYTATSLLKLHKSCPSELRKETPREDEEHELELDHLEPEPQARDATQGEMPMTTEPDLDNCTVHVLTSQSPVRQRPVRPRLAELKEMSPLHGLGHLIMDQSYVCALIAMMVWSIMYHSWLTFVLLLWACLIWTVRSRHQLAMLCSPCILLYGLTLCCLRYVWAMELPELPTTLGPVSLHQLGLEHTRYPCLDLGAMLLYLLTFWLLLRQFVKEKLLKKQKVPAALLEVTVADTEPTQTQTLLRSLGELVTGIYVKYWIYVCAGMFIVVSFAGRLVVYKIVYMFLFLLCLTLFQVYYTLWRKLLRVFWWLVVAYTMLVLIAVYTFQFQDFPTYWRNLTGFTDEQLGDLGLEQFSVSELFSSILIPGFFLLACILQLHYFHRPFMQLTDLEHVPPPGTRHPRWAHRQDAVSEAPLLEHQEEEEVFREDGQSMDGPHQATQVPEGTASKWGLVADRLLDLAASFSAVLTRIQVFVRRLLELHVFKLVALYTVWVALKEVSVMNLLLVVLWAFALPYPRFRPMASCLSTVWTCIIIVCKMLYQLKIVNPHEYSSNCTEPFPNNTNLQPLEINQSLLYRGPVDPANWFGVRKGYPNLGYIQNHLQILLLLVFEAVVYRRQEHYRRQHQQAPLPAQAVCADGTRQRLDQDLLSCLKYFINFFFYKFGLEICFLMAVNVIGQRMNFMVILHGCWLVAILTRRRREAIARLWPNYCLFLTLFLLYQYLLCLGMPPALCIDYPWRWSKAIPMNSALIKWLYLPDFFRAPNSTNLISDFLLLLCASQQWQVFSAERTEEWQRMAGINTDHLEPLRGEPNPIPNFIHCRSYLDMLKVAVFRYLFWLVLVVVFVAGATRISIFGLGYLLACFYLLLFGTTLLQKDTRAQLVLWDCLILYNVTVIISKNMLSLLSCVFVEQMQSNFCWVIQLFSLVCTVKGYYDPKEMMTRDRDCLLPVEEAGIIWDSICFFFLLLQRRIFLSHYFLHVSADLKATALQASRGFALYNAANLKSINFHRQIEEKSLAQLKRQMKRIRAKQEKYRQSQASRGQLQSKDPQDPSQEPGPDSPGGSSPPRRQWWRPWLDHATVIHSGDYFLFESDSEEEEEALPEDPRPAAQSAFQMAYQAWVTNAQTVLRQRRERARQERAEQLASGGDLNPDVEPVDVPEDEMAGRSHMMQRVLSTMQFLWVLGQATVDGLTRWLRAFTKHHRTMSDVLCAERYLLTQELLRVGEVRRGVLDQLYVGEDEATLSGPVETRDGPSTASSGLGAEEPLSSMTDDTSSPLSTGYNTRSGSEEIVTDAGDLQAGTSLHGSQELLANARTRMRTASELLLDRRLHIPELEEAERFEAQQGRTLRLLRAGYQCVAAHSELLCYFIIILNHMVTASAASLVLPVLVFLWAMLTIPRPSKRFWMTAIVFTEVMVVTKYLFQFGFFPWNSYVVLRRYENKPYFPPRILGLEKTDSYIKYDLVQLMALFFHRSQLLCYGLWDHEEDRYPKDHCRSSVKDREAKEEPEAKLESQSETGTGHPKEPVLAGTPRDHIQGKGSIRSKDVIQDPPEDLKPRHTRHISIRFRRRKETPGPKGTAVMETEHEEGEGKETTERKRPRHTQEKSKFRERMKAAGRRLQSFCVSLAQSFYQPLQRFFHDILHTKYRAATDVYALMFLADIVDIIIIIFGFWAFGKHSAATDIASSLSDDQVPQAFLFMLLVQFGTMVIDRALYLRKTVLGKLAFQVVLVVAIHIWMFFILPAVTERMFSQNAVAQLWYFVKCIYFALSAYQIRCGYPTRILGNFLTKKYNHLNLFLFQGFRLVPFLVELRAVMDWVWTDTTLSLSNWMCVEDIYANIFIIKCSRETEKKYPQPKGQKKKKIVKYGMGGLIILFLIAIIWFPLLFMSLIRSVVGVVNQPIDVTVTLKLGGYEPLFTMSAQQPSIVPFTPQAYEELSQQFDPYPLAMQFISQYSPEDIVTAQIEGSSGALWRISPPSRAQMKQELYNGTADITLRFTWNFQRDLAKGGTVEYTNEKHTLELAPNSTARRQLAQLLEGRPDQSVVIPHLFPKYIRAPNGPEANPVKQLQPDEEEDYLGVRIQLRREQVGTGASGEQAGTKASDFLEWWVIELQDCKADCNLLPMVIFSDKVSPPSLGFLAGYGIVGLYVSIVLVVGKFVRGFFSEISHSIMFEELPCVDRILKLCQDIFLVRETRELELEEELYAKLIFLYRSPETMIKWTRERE

| Smiles Structure | Kd [µM] |
| --- | --- |
| Cc1oc(-c2cccs2)cc1C(=O)O | 2240 |
